# Test System: human TLR7 (Homo sapiens (Human), UniProt Q9NYK1)
# Sequence (Q9NYK1 27-1049): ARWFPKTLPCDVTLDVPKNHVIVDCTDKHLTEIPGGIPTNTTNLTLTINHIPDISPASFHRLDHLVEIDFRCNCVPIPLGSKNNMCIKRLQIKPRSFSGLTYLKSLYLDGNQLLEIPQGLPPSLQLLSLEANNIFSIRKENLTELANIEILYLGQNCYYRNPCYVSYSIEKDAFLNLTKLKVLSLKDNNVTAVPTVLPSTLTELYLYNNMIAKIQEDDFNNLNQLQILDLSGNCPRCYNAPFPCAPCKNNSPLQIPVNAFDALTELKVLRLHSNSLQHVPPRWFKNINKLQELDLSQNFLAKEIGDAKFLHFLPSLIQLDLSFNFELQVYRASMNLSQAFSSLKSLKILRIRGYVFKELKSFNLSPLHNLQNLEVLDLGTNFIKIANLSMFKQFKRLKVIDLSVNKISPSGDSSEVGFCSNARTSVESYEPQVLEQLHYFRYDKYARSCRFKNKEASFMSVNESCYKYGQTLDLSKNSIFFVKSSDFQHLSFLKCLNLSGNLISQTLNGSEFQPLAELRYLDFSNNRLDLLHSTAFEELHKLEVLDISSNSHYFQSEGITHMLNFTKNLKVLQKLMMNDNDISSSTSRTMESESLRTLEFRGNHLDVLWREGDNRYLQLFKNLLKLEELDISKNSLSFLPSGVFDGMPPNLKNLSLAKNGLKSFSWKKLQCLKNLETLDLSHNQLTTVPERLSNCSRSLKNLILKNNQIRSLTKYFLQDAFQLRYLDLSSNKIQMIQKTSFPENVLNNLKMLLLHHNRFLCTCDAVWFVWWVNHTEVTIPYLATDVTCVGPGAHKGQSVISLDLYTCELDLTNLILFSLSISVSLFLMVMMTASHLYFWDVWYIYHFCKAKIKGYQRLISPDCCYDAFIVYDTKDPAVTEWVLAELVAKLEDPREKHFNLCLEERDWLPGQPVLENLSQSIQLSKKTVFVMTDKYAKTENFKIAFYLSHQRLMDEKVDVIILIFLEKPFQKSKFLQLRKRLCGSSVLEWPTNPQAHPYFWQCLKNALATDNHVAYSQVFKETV
# Protocol Description: TLR7 inhibition reporter assay (HEK-Blue SEAP)
# Type: cell-based
# Condition Set: HEK-Blue cells overexpressing human TLR7, gardiquimod 7.5 μM stimulation, SEAP reporter
Listing: IC50 of selected compounds

>  <Compound>
COc1cc(-c2[nH]c3ccc(C4CCC(N5CC6(COC6)C5)CC4)nc3c2C(C)C)cn2ncnc12 (stereo not drawn)

>  <IC50>
1.6 nM

$$$$
>  <Compound>
COc1cc(-c2[nH]c3ccc(N4CC(NCC(=O)N(C)C)C4)nc3c2C(C)C)cn2ncnc12 [Example 27]

>  <IC50>
> 3120 nM

$$$$
>  <Compound>
COc1ccc(-c2[nH]c3ccc(C4CCN(C5CCN(CC(C)C)CC5)CC4)nc3c2C)cc1OC

>  <IC50>
471 nM

$$$$
>  <Compound>
COc1cc(-c2[nH]c3ccc(C4CCC(N(C)CCO)CC4)nc3c2C(C)C)cn2ncnc12 (stereo not drawn) [Example 169]

>  <IC50>
3.1 nM

$$$$
>  <Compound>
COc1cc(-c2[nH]c3ccc(N4CCN(C5CCOCC5)CC4)nc3c2C(C)C)cn2ncnc12

>  <IC50>
2.3 nM

$$$$
>  <Compound>
CCn1cc(-c2[nH]c3ccc(C4CCC(NC5CCOCC5)CC4)nc3c2C(C)C)c2cccnc21 (stereo not drawn) [Example 289]

>  <IC50>
3.5 nM

$$$$
>  <Compound>
Cc1c(-c2[nH]c3ccc(C4CCC(NC(C)C)CC4)nc3c2C(C)C)cn2ncnc2c1C (stereo not drawn) [Example 363]

>  <IC50>
3.3 nM

$$$$
>  <Compound>
CCn1cc(-c2[nH]c3ccc(C4CCC(NCC(=O)N(C)C)CC4)nc3c2C(C)C)c2cccnc21 (stereo not drawn)

>  <IC50>
2.6 nM

$$$$
>  <Compound>
COc1cc(-c2[nH]c3cc(C)c(C4CCC(NCC(F)F)CC4)nc3c2C(C)C)cn2ncnc12 (stereo not drawn) [Example 322]

>  <IC50>
1.7 nM

$$$$
>  <Compound>
Cc1c(-c2[nH]c3ccc(N4CCC(N(C)Cc5cn(C)nn5)CC4)nc3c2C(C)C)cn2ncnc2c1C

>  <IC50>
1.4 nM

$$$$
>  <Compound>
Cc1c(-c2[nH]c3ccc(C4CCC(N(C)C)CC4)nc3c2C(C)C)cn2ncnc2c1C (stereo not drawn) [Example 356]

>  <IC50>
2.8 nM

$$$$
>  <Compound>
Cc1c(-c2[nH]c3ccc(C4CCC(NCC(=O)N(C)C)CC4)nc3c2C(C)C)cn2ncnc2c1C (stereo not drawn) [Example 352]

>  <IC50>
5.4 nM

$$$$
>  <Compound>
Cc1c(-c2[nH]c3ccc(C4CCC(N5CCC5)CC4)nc3c2C(C)C)cn2ncnc2c1C (stereo not drawn)

>  <IC50>
1.5 nM

$$$$
>  <Compound>
Cc1cnc(CNC2CCC(c3ccc4[nH]c(-c5cn(C)c6ncccc56)c(C(C)C)c4n3)CC2)cn1 (stereo not drawn) [Example 205]

>  <IC50>
0.42 nM

$$$$
>  <Compound>
COc1cc(-c2[nH]c3ccc(C4CCC(N(C)CC(=O)N(C)C)CC4)nc3c2C(C)C)cn2ncnc12 (stereo not drawn) [Example 211]

>  <IC50>
1.1 nM

$$$$
>  <Compound>
COc1cc(-c2[nH]c3cc(C)c(C4CCC(N(C)CC(C)(C)C)CC4)nc3c2C(C)C)cn2ncnc12 (stereo not drawn) [Example 334]

>  <IC50>
4.6 nM

$$$$
>  <Compound>
Cc1c(-c2[nH]c3ccc(C4CCC(NCC5(S(C)(=O)=O)CC5)CC4)nc3c2C(C)C)cn2ncnc2c1C (stereo not drawn)

>  <IC50>
0.6 nM

$$$$
>  <Compound>
CC(C)c1c(-c2cn(C)c3ncccc23)[nH]c2ccc(N3CC(NCC(=O)N(C)C)C3)nc12 [Example 34]

>  <IC50>
17 nM

$$$$
>  <Compound>
CNC1CCC(c2nc3c(C(C)C)c(-c4cc(OC)c5ncnn5c4)[nH]c3cc2F)CC1 (stereo not drawn) [Example 348]

>  <IC50>
0.82 nM

$$$$
>  <Compound>
CC(C)c1c(-c2cn(C)c3ncccc23)[nH]c2ccc(C3CCC(NCCS(C)(=O)=O)CC3)nc12 (stereo not drawn) [Example 251]

>  <IC50>
8.6 nM

$$$$
>  <Compound>
COc1cc(-c2[nH]c3ccc(N4CCN(C)CC4)nc3c2C(C)C)cn2ncnc12

>  <IC50>
0.68 nM

$$$$
>  <Compound>
Cc1cc(-c2[nH]c3ccc(C4CCC(N5CC6(COC6)C5)CC4)nc3c2C(C)C)cn2ncnc12 (stereo not drawn) [Example 281]

>  <IC50>
0.48 nM

$$$$
>  <Compound>
COc1cc(-c2[nH]c3cc(C)c(C4CCC(NCC(C)(C)O)CC4)nc3c2C(C)C)cn2ncnc12 (stereo not drawn)

>  <IC50>
2.4 nM

$$$$
>  <Compound>
CC(C)c1c(-c2cn(CC#N)c3ncccc23)[nH]c2ccc(C3CCC(NCCS(C)(=O)=O)CC3)nc12 (stereo not drawn) [Example 273]

>  <IC50>
75 nM

$$$$
>  <Compound>
Cc1c(-c2[nH]c3ccc(N4CC(N5CCS(=O)(=O)CC5)C4)nc3c2C(C)C)cn2ncnc2c1C

>  <IC50>
264 nM

$$$$
>  <Compound>
COc1cc(-c2[nH]c3ccc(N4CCN(CC(C)(C)O)CC4)nc3c2C(C)C)cn2ncnc12

>  <IC50>
2.2 nM

$$$$
>  <Compound>
Cc1c(-c2[nH]c3ccc(N4CC(N5CCOCC5)C4)nc3c2C(C)C)cn2ncnc2c1C

>  <IC50>
40 nM

$$$$
>  <Compound>
Cc1c(-c2[nH]c3ccc(C4CCC(NCC(=O)N(C)C)CC4)nc3c2C(C)C)cn2ncnc2c1C (stereo not drawn) [Example 354]

>  <IC50>
1 nM

$$$$
>  <Compound>
Cc1c(-c2[nH]c3ccc(N4CCCN(CC(=O)N(C)C)CC4)nc3c2C(C)C)cn2ncnc2c1C

>  <IC50>
9.7 nM

$$$$
>  <Compound>
COc1cc(-c2[nH]c3ccc(C4CCC(NCc5cnc(C)cn5)CC4)nc3c2C(C)C)cn2ncnc12 (stereo not drawn) [Example 190]

>  <IC50>
0.8 nM

$$$$
